test: cytotoxicity in HPDE-C7 cells, cell-based, fluorescence, HTS (AID 430); details: HPDE-C7 pancreatic duct cells viability, at 10 µM;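 further: cells exposed to compound for 48 hours before viability readout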
Out of some 63,000 compounds screened, about 1,100 (1.7%) were called active. No stated cut-off is given here; in the data, active means cytotoxicity above about 50%; inactive means the rest. The sample as a whole holds a higher share of actives than the screen did. Potency and affinity values are given separately.
Possible outcomes: active, inactive

- molecule: "CCCNC(=O)c1cc(-c2ccco2)on1"
  labelClass: "inactive"
- molecule: "COC(=O)c1c(NC(=O)CN2CCCC(C)C2)c2c(C)cccc2n1C (configuration not stated)"
  labelClass: "inactive"
- molecule: "CC(C)CN(C#N)c1nc(N2CCOCC2)nc(N2CCOCC2)n1"
  labelClass: "inactive"
- molecule: "COc1ccc(CNc2nc3nc(C)cc(C)n3n2)cc1OC"
  labelClass: "inactive"
- molecule: "Cn1c(NCCCN2CCOCC2)nc2c1c(=O)n(Cc1ccc(Cl)c(Cl)c1)c(=O)n2C"
  labelClass: "inactive"
- molecule: "Cn1c(NCC(O)c2ccccc2)nc2c1c(=O)n(Cc1ccc(Cl)cc1)c(=O)n2C (configuration not stated)"
  labelClass: "active"
- molecule: "Cc1cc(C)nc(-n2nc(C)cc2NC(=O)CN2CCC(C)CC2)n1"
  labelClass: "inactive"
- molecule: "COc1ccc(CNCC(=O)Nc2cc(C)nn2-c2nc(C)cc(C)n2)cc1OC"
  labelClass: "active"
- molecule: "Cn1c(NCc2ccco2)nc2c1c(=O)n(Cc1ccc(Cl)c(Cl)c1)c(=O)n2C"
  labelClass: "inactive"
- molecule: "Fc1cccc(CSc2ncnc3c2oc2ccccc23)c1"
  labelClass: "inactive"
- molecule: "COc1ccccc1N1CCN(CC(=O)Nc2cc(C)nn2-c2nc(C)cc(C)n2)CC1"
  labelClass: "active"
- molecule: "Cc1c(NC(=O)c2cc(-c3ccccc3)on2)c(=O)n(-c2ccccc2)n1C"
  labelClass: "inactive"
